- measuredTarget: human Cot catalytic domain (30-397 amino acids) (Homo sapiens)
- Construct: Purified recombinant human Cot catalytic domain (30-397 amino acids) was purchased from Cama Biosciences; purchased Cama Biosciences (so in the source)
- Sequence (P41279 30-397): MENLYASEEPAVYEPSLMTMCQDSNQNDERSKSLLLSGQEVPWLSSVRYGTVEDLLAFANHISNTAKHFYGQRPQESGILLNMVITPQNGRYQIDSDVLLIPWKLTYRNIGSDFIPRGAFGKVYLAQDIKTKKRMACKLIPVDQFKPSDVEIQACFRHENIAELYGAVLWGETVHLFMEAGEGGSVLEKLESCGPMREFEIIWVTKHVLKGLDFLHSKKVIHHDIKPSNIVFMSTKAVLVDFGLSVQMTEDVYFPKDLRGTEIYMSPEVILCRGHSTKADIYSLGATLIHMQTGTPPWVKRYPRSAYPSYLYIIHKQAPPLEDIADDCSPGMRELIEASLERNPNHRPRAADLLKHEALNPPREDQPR
- testDetails: High Throughput Cot Biochemical Assay (KinEASE TR-FRET)
- setupConditions: Cot KinEASE TR-FRET, 400 μM ATP; read-out: IC50 HTRF
Here, each record is paired with measured pIC50 data.
Please keep in mind that pIC50 is minus log10 of the molar concentration; only the number is needed.

CC(C)(C)CNc1c(C#N)cnc2c(C#N)cc(N[C@H](c3cn(CC(N)=O)nn3)c3ccccc3Cl)cc12 ... 8.52

API: the following record is the query input.
Query :: GET /values?readout=pIC50&system=human Cot catalytic domain (30-397 amino acids) (Homo sapiens)&item= Cc1c(F)cccc1[C@H](Nc1cc(C#N)c2ncc(C#N)c(NCC(C)(C)C)c2c1)c1cn(C2(C(F)(F)F)CC2)nn1
Result :: 7.89

----------
- measuredTarget: human Cot catalytic domain (30-397 amino acids) (Homo sapiens)
- Construct: Purified recombinant human Cot catalytic domain (30-397 amino acids) was purchased from Cama Biosciences; purchased Cama Biosciences (so in the source)
- testDetails: High Throughput Cot Biochemical Assay (KinEASE TR-FRET)
- setupConditions: Cot KinEASE TR-FRET, 400 μM ATP; read-out: IC50 HTRF
Here, each record is paired with measured pIC50 data.
Please keep in mind that pIC50 is minus log10 of the molar concentration; only the number is needed.

Solved cases below.
Cc1nnc(C2(n3cc([C@@H](Nc4cc(C#N)c5ncc(C#N)c(NCC(C)(C)C)c5c4)c4ccccc4Cl)nn3)CC2)o1 [Example 1161] ... 7.85
N#CCC[C@@H](Nc1c(C#N)cnc2c(C#N)cc(N[C@@H](c3ccccc3)c3cn(C4(C#N)CC4)nn3)cc12)c1ccccc1 [Example 961] ... 9.00

Query :: GET /values?readout=pIC50&system=human Cot catalytic domain (30-397 amino acids) (Homo sapiens)&item= CC(C)(C)N1CCC(n2cc([C@@H](Nc3cc(Cl)c4ncc(C#N)c(Nc5ccc(F)c(S(C)(=O)=O)c5)c4c3)c3ccc(Cl)cc3)nn2)CC1 [Example 754]
Result :: 5.60

Query :: GET /values?readout=pIC50&system=human Cot catalytic domain (30-397 amino acids) (Homo sapiens)&item= Cc1c(C#N)cccc1[C@H](Nc1cc(Cl)c2ncc(C#N)c(NCC(C)(C)C)c2c1)c1cn(C2(CF)CC2)nn1 [Example 1100]
Result :: 8.40

Query :: GET /values?readout=pIC50&system=human Cot catalytic domain (30-397 amino acids) (Homo sapiens)&item= COC(=O)c1cc([C@H](Nc2cc(Cl)c3ncc(C#N)c(NCC(C)(C)C)c3c2)c2cn(C3(C(F)(F)F)CC3)nn2)ccc1F [Example 1088]
Result :: 7.66

Query :: GET /values?readout=pIC50&system=human Cot catalytic domain (30-397 amino acids) (Homo sapiens)&item= [2H][C@](Nc1cc(Cl)c2ncc(C#N)c(NCC(C)(C)c3ccccn3)c2c1)(c1ccc(F)cc1)c1cn(C2CC2)nn1 [Example 1016]
Result :: 7.55

Query :: GET /values?readout=pIC50&system=human Cot catalytic domain (30-397 amino acids) (Homo sapiens)&item= Cc1c(C#N)cccc1[C@H](Nc1cc(Cl)c2ncc(C#N)c(NCC(C)(C)C)c2c1)c1cn(C23CC(C2)C3)nn1 [Example 1108]
Result :: 8.40
